Tested on: HT-29
procedure-text: Cytotoxicity against human HT-29 cells
Type: functional, cell-based
Active and inactive are the calls of the source. The calls are words filed in the database; no cut-off is given here.
Parameter call: string, one of active, inactive

Query string: Could you kindly confirm the outcome this assay logged for CSc1ccc(/C=C/C(=O)c2ccccc2)cc1 ?
Result string: inactive

Query string: Now consider COc1ccc(/C=C/C(=O)c2ccccc2O)cc1 .
Result string: inactive

Query string: Now consider O=c1cc(-c2ccc(Br)cc2)oc2ccccc12 .
Result string: inactive

Query string: Now consider O=C(/C=C/c1ccc(Br)cc1)c1ccccc1O .
Result string: inactive

Query string: Now consider COc1ccc(/C=C/C(=O)c2ccccc2)cc1 .
Result string: active

Continuing:
Query string: Could you kindly confirm the outcome this assay logged for O=C(/C=C/c1ccccn1)c1ccccc1O ?
Result string: active

Query string: Now consider O=c1cc(-c2ccccc2)oc2ccccc12 .
Result string: inactive

Query string: Now consider O=C1CC(c2ccccc2Br)Oc2ccccc21 (configuration not stated) .
Result string: inactive

====

Tested on: Rattus norvegicus
procedure-text: Toxicity in Sprague-Dawley rat assessed as leucocyte level at 10 mg/kg/day, po
assay-setup: in vivo
Would you mind telling me the reported Activity of each entry?
One number for each entry, in µL⁻¹.

Sample answers from the record:
Query string: Tell me the measured Activity of COc1ccc(/C=C/C(=O)c2ccccc2O)cc1OC , please.
Result string: 9600

Query string: Now consider O=C(/C=C/c1ccc(Br)cc1)c1ccccc1O .
Result string: 7700

Query string: Now consider CN(C)c1ccc(/C=C/C(=O)c2ccccc2O)cc1 .
Result string: 5500

Query string: Now consider COc1ccc(/C=C/C(=O)c2ccccc2O)cc1 .
Result string: 7300

Query string: Now consider O=C(/C=C/c1ccccc1)c1ccccc1O [2'-HYDROXYCHALCONE] .
Result string: 5200

Could you report Activity for every entry in the following list?
1. O=c1cc(-c2ccccc2Br)oc2ccccc12
2. COc1ccc(C2CC(=O)c3ccccc3O2)cc1 (configuration not stated)

Result string:
[4500, 8600]

====

Test system: Rattus norvegicus
procedure-text: Induction glutathione-CYP1A1 in rat liver at 15 mg/kg, po qd by EROD assay
Format: functional
Parameter threshold = 30%. Response is TRUE when Activity meets or exceeds it, else FALSE.

Query string: Could you verify whether the entry O=C(/C=C/c1cccs1)c1ccccc1O shows Activity of no less than 30%?
Result string: FALSE

Query string: Now consider CSc1ccc(/C=C/C(=O)c2ccccc2)cc1 .
Result string: TRUE

Query string: Now consider O=C(/C=C/c1ccc(Cl)cc1)c1ccccc1 [4-CHLORO CHALCONE] .
Result string: TRUE

Continuing:
Query string: Could you verify whether the entry COc1ccc(/C=C/C(=O)c2ccccc2)cc1 [4-METHOXY CHALCONE] shows Activity of no less than 30%?
Result string: FALSE

Query string: Now consider O=C(/C=C/c1ccccc1)c1ccccc1O [2'-HYDROXYCHALCONE] .
Result string: FALSE

====

Tested on: TK-10
procedure-text: Cytotoxicity against human TK10 cells
Format: functional, cell-based
Active and inactive are the calls of the source. No cut-off for these calls is given here.
Parameter call: string, one of yes (1) = active, no (0) = inactive

Query string: Could you kindly confirm the outcome this assay logged for O=C(/C=C/c1ccccc1)c1ccccc1O [2'-HYDROXYCHALCONE] ?
Result string: yes (1)

Continuing:
Query string: Could you kindly confirm the outcome this assay logged for Nc1ccc(/C=C/C(=O)c2ccccc2O)cc1 ?
Result string: no (0)

Query string: Now consider CSc1ccc(/C=C/C(=O)c2ccccc2)cc1 .
Result string: yes (1)

Query string: Now consider COc1ccc(/C=C/C(=O)c2ccccc2O)cc1 .
Result string: yes (1)

Query string: Now consider O=C1CC(c2ccccc2Br)Oc2ccccc21 (stereo unspecified) .
Result string: no (0)

Query string: Now consider O=C(/C=C/c1ccc2c(c1)OCO2)c1ccccc1O .
Result string: no (0)

Where do the numbers come from? From ChEMBL document CHEMBL1250420.
